# assayTarget: T1, Lsb1, P53281
# T1 sequence (P53281 45-122, looked up): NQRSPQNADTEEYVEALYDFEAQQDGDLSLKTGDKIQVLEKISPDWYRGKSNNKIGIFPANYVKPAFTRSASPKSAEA
# experimentalProtocol: SPOT array
# measurementSetup: median of control spots 388
measurementLabel: SPOT intensity

Record excerpt, results attached:
Reported SPOT intensity ( `KIRRSSLMIPNPQQF` ) = 12

# SPOT intensity of `NLPKRKPPKLQGPFS` = 0

Measured SPOT intensity of `DAPASKPSVPPRNYF` : 1310

# SPOT intensity of `NSMRPPLLIPAATTK` = 387

Entry `NPTKSPPPPPSPSTM` ; SPOT intensity = 0

Value of measured SPOT intensity for the entry `VYTRTAFQIPGDDKI` : 1120

Lookup result for `RSLRKRPTSPSISGS` ; measured SPOT intensity: 26

For `RRASLFPRDPKRLRP` the binder record lists SPOT intensity as 0

Reported SPOT intensity of `GLRRARYKFPGQQKI` : 71

Noted for `VTHRLRISIPGITGR` : its SPOT intensity reads 382

A. SNRRPVPRRPSQPLN
B. LYEAMPPTLPHRDWK
C. RRARRQMGIPTISQV
Input: Please give the order of these binders when sorted by SPOT intensity, largest value leading. The response must list the labels following the requested ordering.
Output: A, C, B
(A: 576, C: 35, B: 0)

a. NGRRRPKFRVQLSGN
b. RKRAPTPPAPSRSEK
Input: Higher SPOT intensity: a or b ? Give the label of your selection.
Output: b
